Field: Change in blood pressure. Provide a value for each of the compounds that follow.
- PROTOCOL_NOTES: Effect on change in blood pressure in mice
- Assay type: functional
Give bare numbers, in mmHg.

Recorded results for 5 compounds are shown here.
1. N[C@H]1CCOc2ccccc2[C@@H]1O | 32
2. Cc1ccc2c(c1)[C@H](O)[C@H](N)CCO2 | 10
3. COc1ccc2c(c1)[C@H](O)[C@@H](N)CCO2 | 40
4. COc1ccc2c(c1)[C@H](O)[C@H](N)CCO2 | 20
5. Cc1ccc2c(c1)[C@H](O)[C@@H](N)CCO2 | 38

// next item, Change in blood pressure requested
Just so you know, measured Change in blood pressure for `N[C@@H]1CCOc2ccccc2[C@@H]1O` came out at 44

---

- PROTOCOL_NOTES: Acute toxicity when administered intraperitoneally in mice
- Format: organism-based
- CONDITION_SUMMARY: mouse, in vivo, ip; read-out: ALD50
Field: LD50. Provide a value for each of the molecules that follow.
Numbers only, in mg/kg.

1) Cc1ccc2c(c1)[C@H](O)[C@@H](N)CCO2 | 150

Hello, I would appreciate it if you could give LD50 for each entry below.
1. N[C@@H]1CCOc2ccccc2[C@@H]1O
2. N[C@H]1CCOc2ccccc2[C@@H]1O
3. Cc1ccc2c(c1)[C@H](O)[C@H](N)CCO2
4. N[C@@H]1CCCc2ccccc2[C@@H]1O

Result block:
[800, 500, 300, 150]

Hello, I would appreciate it if you could give LD50 for each entry below.
1. COc1ccc2c(c1)[C@H](O)[C@@H](N)CCO2
2. N[C@H]1CCCc2ccccc2[C@@H]1O
3. COc1cc2c(cc1OC)[C@H](O)[C@H](N)CCC2
4. Cc1cc2c(cc1C)[C@H](O)[C@H](N)CCC2
5. COc1ccc2c(c1)[C@H](O)[C@H](N)CCO2
6. N[C@@H]1CCCc2cc(O)c(O)cc2[C@@H]1O

Result block:
1. 150
2. 150
3. 150
4. 150
5. 150
6. 150

The measurements presented in this section are drawn from ChEMBL document CHEMBL1146759.
